src = paper PMC8605023

- target-entity: G3BP1 NTF2 domain, His-GST-tagged (human, UniProt Q13283 11-133)
- Sequence (Q13283 11-133): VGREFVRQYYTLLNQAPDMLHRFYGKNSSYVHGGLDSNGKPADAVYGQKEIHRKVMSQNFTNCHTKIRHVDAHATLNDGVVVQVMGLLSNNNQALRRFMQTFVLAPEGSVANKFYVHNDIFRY
- applied-conditions: both partners purified
Ends that are not written are not given here. * marks the point of attachment. FITC = O=C1OC2(c3ccc(O)cc3Oc3cc(O)ccc32)c2ccc(NC(=S)*)cc21
endpoint-label: Kd (µM)
Return type: number; implicit unit µM.

Prompt: Looking for the measured Kd of {FITC}-APRITFGGPSDS [N FITC-APRITFGGPSDS] , can you help?
Response: 3.2
